Where these numbers come from: patent US20260209362A1

Target: T1, human IL-12Rβ2 (human, UniProt Q99665 24-862)
T1 construct: Expressed on HEK293T cells transiently transfected with a pcDNA3 plasmid (Genscript clone OHu21785); also called hIL-12RB2; IL-12 receptor β2 subunit
T1 sequence: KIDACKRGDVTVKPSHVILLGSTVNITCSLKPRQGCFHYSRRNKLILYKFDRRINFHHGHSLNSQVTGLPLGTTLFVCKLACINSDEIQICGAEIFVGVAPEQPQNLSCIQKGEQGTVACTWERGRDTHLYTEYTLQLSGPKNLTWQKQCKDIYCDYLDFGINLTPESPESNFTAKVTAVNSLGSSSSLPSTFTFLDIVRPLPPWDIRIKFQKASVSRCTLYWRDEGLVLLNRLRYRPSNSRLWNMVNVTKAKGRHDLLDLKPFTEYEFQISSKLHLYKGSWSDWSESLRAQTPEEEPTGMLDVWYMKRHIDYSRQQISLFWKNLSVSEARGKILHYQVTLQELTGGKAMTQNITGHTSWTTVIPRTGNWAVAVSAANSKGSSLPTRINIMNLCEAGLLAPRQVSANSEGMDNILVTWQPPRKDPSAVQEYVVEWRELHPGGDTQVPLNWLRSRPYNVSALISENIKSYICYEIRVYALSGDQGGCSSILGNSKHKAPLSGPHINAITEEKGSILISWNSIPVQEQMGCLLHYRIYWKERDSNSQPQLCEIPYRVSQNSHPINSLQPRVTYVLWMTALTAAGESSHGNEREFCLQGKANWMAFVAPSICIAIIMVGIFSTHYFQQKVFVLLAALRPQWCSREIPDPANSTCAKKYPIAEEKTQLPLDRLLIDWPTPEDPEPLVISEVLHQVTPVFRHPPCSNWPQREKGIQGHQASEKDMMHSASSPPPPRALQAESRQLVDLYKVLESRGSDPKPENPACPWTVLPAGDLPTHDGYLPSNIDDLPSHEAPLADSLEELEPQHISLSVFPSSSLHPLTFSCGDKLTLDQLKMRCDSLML
Assay: flow cytometry, P.E. on transfected HEK293T cells
valueType: % cells bound (%)
All answers are understood in %, so give the number only.

Which measured % cells bound value corresponds to anti-IL-12Rβ2 VHH clone 3CRHS106 (VHH, not shown: small tags and cut ends, periplasmic extract) VHH: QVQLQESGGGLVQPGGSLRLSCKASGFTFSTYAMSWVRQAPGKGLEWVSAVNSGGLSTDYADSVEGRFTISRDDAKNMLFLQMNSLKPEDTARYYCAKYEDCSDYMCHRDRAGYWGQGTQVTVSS ?
43.3

Look up % cells bound for this binder: anti-IL-12Rβ2 VHH clone 3CRHS163 (VHH, not shown: small tags and cut ends, periplasmic extract) VHH: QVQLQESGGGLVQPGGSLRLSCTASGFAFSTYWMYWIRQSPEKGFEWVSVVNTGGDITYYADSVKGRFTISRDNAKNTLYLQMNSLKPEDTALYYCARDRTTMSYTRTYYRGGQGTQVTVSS
43.7

Request the reported % cells bound associated with anti-IL-12Rβ2 VHH clone 3CRHS99 (VHH, not shown: small tags and cut ends, periplasmic extract) VHH: QVQLQESGGGLVQPGGSLRLSCKASGFTFSTYAMSWVRQAPGKGLEWVSAINSGGLSTDYADSVEGRFTISRDDAKNMLFLQMNSLKAEDTARYYCAKYEDCSDYMCHRDRAGYWGQGTQVTVSS
42.1

What does the data say about its % cells bound? Entry: anti-IL-12Rβ2 VHH clone 2CRH76 (VHH, not shown: small tags and cut ends, periplasmic extract) VHH: QVQLQESGGGLVQTGGSLRLSCVASGRTFNWSAMGWFRQPPGKEREVVATISGGGTSAYYADSVKGRFTISRDGAKNTLYLQMNSLKPEDTAVYYCAADRVDYRMTLTQNGNHYWGQGTQVTVSS
36.6

What measured % cells bound goes with anti-IL-12Rβ2 VHH clone 3CRHM73 (VHH, not shown: small tags and cut ends, periplasmic extract; also called 21060) VHH: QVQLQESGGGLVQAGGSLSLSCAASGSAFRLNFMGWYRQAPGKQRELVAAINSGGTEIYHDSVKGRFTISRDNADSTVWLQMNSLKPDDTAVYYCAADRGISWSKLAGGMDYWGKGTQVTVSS ?
19.5

More entries:
Which % cells bound is reported for this binder? anti-IL-12Rβ2 VHH clone 3CRHM99 (VHH, not shown: small tags and cut ends, periplasmic extract; also called 21062) VHH: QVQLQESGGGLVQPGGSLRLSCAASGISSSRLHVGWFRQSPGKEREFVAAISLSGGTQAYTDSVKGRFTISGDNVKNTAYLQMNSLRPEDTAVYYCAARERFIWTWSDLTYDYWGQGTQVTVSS
24.4

Name the recorded % cells bound for anti-IL-12Rβ2 VHH clone 3CAHM40 (VHH, not shown: small tags and cut ends, periplasmic extract) VHH: QVQLQESGGGSVQAGGSLRLSCAVSGRTVSDYAMGWFRQAPGKEREFVAAMSSSETTVYPNSMKGRITISRDNAKNAVYLQLNALKPEDTAVYYCSMGPIATFQGLARQNEYHYWGQGTQVTVSS .
32.7

What value of % cells bound has been recorded for this entry: anti-IL-12Rβ2 VHH clone 3CAHS43 (VHH, not shown: small tags and cut ends, periplasmic extract) VHH: QVQLQESGGGSVQAGGSLRLSCAASGRTINAYIMGWFRQAPGKEREFVAAVSGSGGSTYYADSVKGRFTISRDNAKNTVNLQMDNLRSEDTDVYYCAATYESVYLRNPGQYDYWGQGTQVTVSS
47.6

Suppose we examine the binder anti-IL-12Rβ2 VHH clone 3CRHS3 (VHH, not shown: small tags and cut ends, periplasmic extract) VHH: QVQLQESGGGLVQPGGSLRLSCTASGSIFSIYNMDWYRQAPGNQREWVASITSSGDPYYDASVKGRFTISRDSAKMTVYLQMNSLKPEDTAVYYCKLPTEKGNYWGQGTQVTVSS ; what % cells bound value has been reported?
47.2

Which % cells bound value is on record for anti-IL-12Rβ2 VHH clone 3CRHS2 (VHH, not shown: small tags and cut ends, periplasmic extract) VHH: QVQLQESGGGLVQLGGSLTLSCAASGSAALIFLMSWYRQAPGKQRELVAEVSRYGSTTYADSVEGRFTISRDNAKNIVDLQMNSLKPEDTAVYYCKADQYYGDSLRSSWGRGTQVTVSS ?
44.5

May I ask what % cells bound has been recorded for anti-IL-12Rβ2 VHH clone 3CRHM49 (VHH, not shown: small tags and cut ends, periplasmic extract; also called 21058) VHH: QVQLQESGGGLVQAGGSLRLSCAASGRTFSNYAMAWFRQAPGTEREFVAGLSGSGGDTAFYDNSVMGRFTISRDSAKNTMWLQINNLKPEDTAVYYCAAATHVVVSYGLVRRRGTYDYWGQGTQVTVSS ?
36

Need % cells bound, item anti-IL-12Rβ2 VHH clone 2CAH27 (VHH, not shown: small tags and cut ends, periplasmic extract) VHH: QVQLQESGGGSVQSGGSLRLSCVASGRTFSSYAMGWFRQGPGKEREFVAAISWSGVSIYYADSVKGRFTISRDNAKNTVYLQMNSLEPEDTAVYYCAGTEGAYTVAGGSTFGYDMDYWGKGTQVTVSS
36.7

For anti-IL-12Rβ2 VHH clone 3CRH43 (VHH, not shown: small tags and cut ends, periplasmic extract) VHH: QVQLQESGGGSVQPGGSLRLSCAASGFTFSTSGMHWFRQAPGKGLEWVSSIGIIVDSSYYASSVKGRFTISRDNAKNIVYLQMNSLKSEDTAVYYCSKDPTGSSRGQGTQVTVSS , what is its reported % cells bound?
45.5

Recorded % cells bound of anti-IL-12Rβ2 VHH clone 2CRH62 (VHH, not shown: small tags and cut ends, periplasmic extract) VHH: QVQLQESGGGLVQPGGSLRLSCVESGRTFTVYDMGWFRQAPGKEREIVAAISADGATSIYQDSVKGRFTISRDNDAKNTVYLQMNSLKPEDTAVYYCAAGRSLIYNLYRANNTDYWGQGTQVTVSS , please.
41.9

% cells bound for anti-IL-12Rβ2 VHH clone 3CRH5 (VHH, not shown: small tags and cut ends, periplasmic extract) VHH: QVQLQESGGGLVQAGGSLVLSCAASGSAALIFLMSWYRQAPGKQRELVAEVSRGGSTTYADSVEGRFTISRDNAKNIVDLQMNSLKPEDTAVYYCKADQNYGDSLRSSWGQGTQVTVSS ?
39.5
